All values here come from patent US9067966B2.

compounds and their reported melting point

Here's what some known entries look like.
C=C(C)[C@@H]1CC[C@]2(C(=O)N[C@@H]3C[C@H](C(=O)OCc4ccccc4)C3(C)C)CC[C@]3(C)[C@H](CC[C@@H]4[C@@]5(C)CC[C@H](OC(=O)CC(C)(C)C(=O)O)C(C)(C)[C@@H]5CC[C@]43C)[C@@H]12	64.7 to 100.4 °C
C=C(C)[C@@H]1CC[C@]2(C(=O)N[C@H]3C[C@@H](C(=O)N4CCCCC4)C3(C)C)CC[C@]3(C)[C@H](CC[C@@H]4[C@@]5(C)CC[C@H](OC(=O)[C@@H]6C[C@H](C(=O)O)C6(C)C)C(C)(C)[C@@H]5CC[C@]43C)[C@@H]12	257.7 to 269 °C
C=C(C)[C@@H]1CC[C@]2(C(=O)N[C@H]3C[C@@H](C(=O)N4CCCC4)C3(C)C)CC[C@]3(C)[C@H](CC[C@@H]4[C@@]5(C)CC[C@H](OC(=O)CC(C)(C)C(=O)O)C(C)(C)[C@@H]5CC[C@]43C)[C@@H]12 [Example 15]	110 to 114 °C

Task item: Could you tell me which melting point is on file for C=C(C)[C@@H]1CC[C@]2(C(=O)O)CC[C@]3(C)[C@H](CC[C@@H]4[C@@]5(C)CC[C@H](OC(=O)[C@H]6C[C@@H](C(=O)O)C6(C)C)C(C)(C)[C@@H]5CC[C@]43C)[C@@H]12 [Example 19] ?
Reply: 308 to 310 °C
